Exercise: state measured GI50 for each of the compounds provided.
Test system: KM12 colon
Assay: NCI tumour cell line growth inhibition, 48 h

// field: GI50; key: "C=C1C(=O)O[C@H]2[C@H]1CC/C(COC(=O)NCCc1c[nH]c3ccccc13)=C\CC[C@@]1(C)O[C@@H]21" ; value = 5.41 µM

// field: GI50; key: "CN1CCN(CCCOc2ccc3ncnc(Nc4ccc(Oc5cccc(C(F)(F)F)c5)c(Cl)c4)c3c2)CC1" ; value = 1.86 µM

// field: GI50; key: "COc1cc(-c2ccc(-[n+]3nc(-c4ccc([N+](=O)[O-])cc4)nn3-c3ccc([N+](=O)[O-])cc3)c(OC)c2)ccc1-[n+]1nc(-c2ccc([N+](=O)[O-])cc2)nn1-c1ccc([N+](=O)[O-])cc1" ; value = 4.04 µM

// field: GI50; key: "CC(=O)[CH-]C(C)=O.CC(=O)[CH-]C(C)=O.CC(=O)[CH-]C(C)=O.[Cl-].[Hf+4]" ; value = > 100 µM

// field: GI50; key: "Cc1ccc(-c2nc3nc(-c4ccc(Cl)cc4)nc(N4CCCNCC4)c3o2)cc1" ; value = 1.93 µM

// field: GI50; key: "O=[N+]([O-])c1ccccc1/C=C/C=C1c2ccccc2-c2ccccc21" ; value = > 100 µM

// field: GI50; key: CCCCCCCCO/N=C\c1c2c(O)c3c(O)c(C)c4c(c3c1O)C(=O)C(C)(O/C=C\C(OC)C(C)C(OC(C)=O)C(C)C(O)C(C)C(O)C(C)/C=C\C=C(\C)C(=O)N2)O4 (configuration not stated) ; value = 1.67 µM

---

Test system: PC-3 prostate
Assay: NCI tumour cell line growth inhibition, 48 h
Exercise: state measured TGI for each of the compounds provided.
Unit µM implied. Number only.

// field: TGI; key: OC1C=C2C3CN(Cc4cc5c(cc43)OCO5)[C@H]2C[C@@H]1O (some centres undefined) ; value = 22.6

// field: TGI; key: "CN1CCN(Cc2ccc(NC(=O)c3[nH]ncc3Nc3ccnc4ccsc34)cc2)CC1" ; value = 20.2

// field: TGI; key: "CCC/C(Cl)=N\OC(=O)Nc1ccc(Br)cc1" ; value = 28.4

// field: TGI; key: CC1=C([Se]CC(OC(=O)[C@@H](CSSC(C)(C)C)NC(=O)C(C)(C)C)C(=O)NCCCCCC(=O)OCc2ccccc2)C(=O)c2ccccc2C1=O (some centres undefined) ; value = 3.63

// field: TGI; key: "Cn1c(Cc2ccccc2)nc2cc3ccccc3cc21" ; value = 59.6

// field: TGI; key: "COc1cc(-c2ccc(-[n+]3nc(-c4ccc([N+](=O)[O-])cc4)nn3-c3ccc([N+](=O)[O-])cc3)c(OC)c2)ccc1-[n+]1nc(-c2ccc([N+](=O)[O-])cc2)nn1-c1ccc([N+](=O)[O-])cc1" ; value = 36.5

---

Test system: SK-MEL-2 melanoma
Experiment: NCI tumour cell line growth inhibition, 48 h
Exercise: state measured TGI for each of the compounds provided.
Unit µM implied. Number only.

// field: TGI; key: N=C(N)C(N=Nc1ccccc1)C(=N)N (stereo unspecified) ; value = 91.9

// field: TGI; key: OC1C=C2C3CN(Cc4cc5c(cc43)OCO5)[C@H]2C[C@@H]1O (stereo partly specified) ; value = 11.9

// field: TGI; key: "CN1CCN(Cc2ccc(NC(=O)c3[nH]ncc3Nc3ccnc4ccsc34)cc2)CC1" ; value = 14.7

// field: TGI; key: "Cc1ccc(S(=O)(=O)Oc2coc(CO)cc2=O)cc1" ; value = 57.6

// field: TGI; key: "CCN(CC)CCCN1C(=O)c2c(c(C)c3c(oc4cc(O)ccc43)c2C)C1=O" ; value = 32.6

// field: TGI; key: CCC12CC[C@H](C#N)N3CCc4c(n(c5ccccc45)C(=O)C1)C32 (stereo partly specified) ; value = 31.9

// field: TGI; key: O=C1CC(N2C(=O)/C(=C/C(Cl)=C\c3ccc([N+](=O)[O-])cc3)SC2=S)C(=O)N1c1ccc(Cl)cc1 (stereo unspecified) ; value = 32.1

// field: TGI; key: "Cc1cccc(Oc2ccc(Nc3ncnc4ccc(NC(=O)CN5CCN(C)CC5)cc34)cc2Cl)c1" ; value = 3.64

// field: TGI; key: "COc1ccc2c(c1)/C(=C/c1c(-c3ccc(C)cc3)nc3sc(C)cn13)C(=O)N2" ; value = 47.7

// field: TGI; key: "Cc1c2c(cc3c1[nH]c1ccccc13)C(c1ccc(F)cc1)=NCC2" ; value = 3.28

// field: TGI; key: "CCOC(=O)c1ccc2[nH]c(Cc3[nH]c4ccc(C(=O)OCC)cc4c3C)c(C)c2c1" ; value = 40.5

// field: TGI; key: "COc1ccc2c(c1)-c1c(c3ccccc3n1CCN1CCCCC1)CC2" ; value = 16.7

// field: TGI; key: "COc1cc2c3c(n(CCCn4ccnc4)c(=O)c2cc1OC)-c1ccccc1C3=O" ; value = 17.3

The reported numbers originate from PubChem BioAssay (NCI).
